The entries below come with measured IC50 values attached.
target: human type 2 phosphodiesterase (source: U-937 cells) (Homo sapiens, UniProt O00408); construct: human type 2 phosphodiesterase (source: U-937 cells); endogenous in cells; assay: Inhibition of PDE2; details: substrate 1 μM, 30 minutes at 30° C.
Sequence (O00408 whole entry): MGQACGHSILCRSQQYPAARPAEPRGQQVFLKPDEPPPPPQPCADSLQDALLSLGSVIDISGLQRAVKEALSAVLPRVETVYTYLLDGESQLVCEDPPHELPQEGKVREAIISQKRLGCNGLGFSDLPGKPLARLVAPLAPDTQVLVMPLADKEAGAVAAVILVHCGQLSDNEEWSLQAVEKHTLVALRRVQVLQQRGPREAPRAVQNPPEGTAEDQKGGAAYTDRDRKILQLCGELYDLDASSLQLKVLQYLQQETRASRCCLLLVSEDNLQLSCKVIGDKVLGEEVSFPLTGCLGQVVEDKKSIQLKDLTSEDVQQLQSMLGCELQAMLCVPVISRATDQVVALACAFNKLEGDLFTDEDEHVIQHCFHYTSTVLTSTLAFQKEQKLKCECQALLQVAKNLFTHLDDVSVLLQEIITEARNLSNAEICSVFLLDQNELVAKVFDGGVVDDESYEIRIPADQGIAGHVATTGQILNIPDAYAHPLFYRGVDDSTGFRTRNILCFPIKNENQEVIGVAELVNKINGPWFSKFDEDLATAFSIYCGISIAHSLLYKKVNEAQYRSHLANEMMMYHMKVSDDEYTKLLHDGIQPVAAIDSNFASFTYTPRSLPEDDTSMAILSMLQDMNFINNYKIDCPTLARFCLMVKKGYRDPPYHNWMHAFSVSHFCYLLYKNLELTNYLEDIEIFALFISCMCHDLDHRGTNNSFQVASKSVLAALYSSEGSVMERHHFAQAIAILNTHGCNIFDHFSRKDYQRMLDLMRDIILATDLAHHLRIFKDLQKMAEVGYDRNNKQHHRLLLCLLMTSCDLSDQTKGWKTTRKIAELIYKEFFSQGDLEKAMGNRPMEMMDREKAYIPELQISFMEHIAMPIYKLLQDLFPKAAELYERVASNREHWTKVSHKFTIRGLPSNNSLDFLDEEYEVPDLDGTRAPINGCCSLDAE
Enter your answer as a number in nM; do not include the unit.

[[record]]
compound = "CCCCCC[C@@H]([C@@H](C)O)n1cnc2c(N)ncnc21 (racemic) [EHNA, reference compound]"
target = "human type 2 phosphodiesterase (source: U-937 cells) (Homo sapiens, UniProt O00408)"
endpoint_unit = "nM"
recorded_result = 2100


# evaluate next
Ask | State the recorded IC50 for this entry: CC[C@@H]1C(C)=NN=C(c2ccc(OC)c(OC)c2)c2cc(OC)c(OC)cc21 [S-tofisopam]
Reply | 500
